Source: the supplement of paper PMC6897291

System: U-2932
run_description: growth inhibition by drug plus 177Lu-lilotomab satetraxetan (1 - RLU/untreated control) (fraction); higher = stronger inhibition
experimental_context: 1000 nM; time (day): 6; 177Lu-lilotomab satetraxetan 1 ug/ml
The following compounds are shown together with reported growth inhibition by drug plus 177Lu-lilotomab satetraxetan values.

Past entries and their recorded results:
| compound | observed_value |
| --- | --- |
| CC(C)(C)c1ccc(S(=O)(=O)/C=C/C#N)cc1 | 0.533 |
| CNC(=O)c1cc(Oc2ccc(NC(=O)Nc3ccc(Cl)c(C(F)(F)F)c3)cc2)ccn1 [Sorafenib (Nexavar)] | 0.145 |

Reported growth inhibition by drug plus 177Lu-lilotomab satetraxetan for CC(=O)O[C@@]12CO[C@@H]1C[C@H](O)[C@@]1(C)C(=O)[C@H](O)C3=C(C)[C@@H](OC(=O)[C@H](O)[C@@H](NC(=O)OC(C)(C)C)c4ccccc4)C[C@@](O)([C@@H](OC(=O)c4ccccc4)[C@H]21)C3(C)C [Docetaxel (Taxotere)] : what is it? 0.985

Reported growth inhibition by drug plus 177Lu-lilotomab satetraxetan for `O=C(/C=C/c1cccnc1)NCCCCC1CCN(C(=O)c2ccccc2)CC1` : what is it? 0.988
